Attribution: patent US20260365670A1

# Tested on: A-431
# test summary: Cell proliferation GI50, A-431 cells (Table 6)
# Assay type: cell-based
# setup conditions: A-431 cells
Class membership depends on GI50 alone; the intervals are bucket 1 = under 2 µM, bucket 2 = from 2 µM up to 3 µM, bucket 3 = 3 µM and over

Worked examples, 5 compounds total:
CN1CCC12CCN(c1ccc3nc4n(c3c1)C13CCC(CN(CCOc5c(cnn5C)-c5cc(cn(C)c5=O)C(=O)N4)C1)C3)CC2 (single isomer, unassigned) [Example A67A] = bucket 3
CN(C)C1CN(c2ccc3nc4n(c3c2)C23CCC(CN(CCOc5c(cnn5C)-c5cc(cn(C)c5=O)C(=O)N4)C2)C3)CC1F (single isomer, unassigned) [Example A84D] = bucket 1
CN1CCN(C2CN(c3ccc4nc5n(c4c3)C34CCC(CN(CCOc6c(cnn6C)-c6cc(cn(C)c6=O)C(=O)N5)C3)C4)C2)CC1 (single isomer, unassigned) [Example A70A] = bucket 3
Cn1ncc2c1OCCN1CC3CCC(C3)(C1)n1c(nc3ccc(N4CCN(C5COC5)CC4)cc31)NC(=O)c1cc-2c(=O)n(C)c1 (single isomer, unassigned) [Example A71B] = bucket 1
Cn1ncc2c1OCCN1CC3CCC(C3)(C1)n1c(nc3ccc(N4CCN(C5CC5)CC4)cc31)NC(=O)c1cc-2c(=O)n(C)c1 (single isomer, unassigned) [Example A83A] = bucket 3

(Q) Hi, small favor: classify Cn1ncc2c1OCCN1CC3CCC(C3)(C1)n1c(nc3ccc(N4CCOCC4)cc31)NC(=O)c1cc-2c(=O)n(C)c1 (stereo not shown) [Example A62] by its GI50 when you get a moment.
(A) bucket 2

(Q) Repeat for the following compound: CCC1CCCOc2c(cnn2C)-c2cc(cn(C)c2=O)C(=O)Nc2nc3ccc(N4CCN(C)CC4)cc3n2C1 (single isomer, unassigned) [Example A16A]
(A) bucket 1

(Q) Again, but for CN1CCC2(C1)CN(c1ccc3nc4n(c3c1)C13CCC(CN(CCOc5c(cnn5C)-c5cc(cn(C)c5=O)C(=O)N4)C1)C3)C2 (single isomer, unassigned) [Example A78B]
(A) bucket 1

(Q) What do we get for CN(C)C1CCN(c2ccc3nc4n(c3c2)C23CCC(CN(CCOc5c(cnn5C)-c5cc(cn(C)c5=O)C(=O)N4)C2)C3)CC1(F)F (single isomer, unassigned) [Example A97A] ?
(A) bucket 3

(Q) How about CN(C)C1CN(c2ccc3nc4n(c3c2)C23CCC(CN(CCOc5c(cnn5C)-c5cc(cn(C)c5=O)C(=O)N4)C2)C3)C1 (single isomer, unassigned) [Example A65A] ?
(A) bucket 2

* * *

# Tested on: Ba/F3 cells expressing EGFR mutations
# test summary: Cell proliferation assay, Ba/F3 cells expressing EGFR mutations (CellTiter-Glo, 72 hours)
# Format: cell-based
# setup conditions: BaF3 cells, EGFR DEL19-T790-C797S, CellTiter-Glo, read-out: DEL19-T790-C797S/BaF3 GI50
Response field label takes 1 when GI50 is strictly below 100 nM and 0 in all other cases.

Here are 10 compounds together with their reported answers.
Cn1ncc2c1OCCN1CC3CCC(C3)(C1)n1c(nc3ccc(N4CCC(N5CC(F)C5)C4)cc31)NC(=O)c1cc-2c(=O)n(C)c1 (single isomer, unassigned) [Example A94A2] = 0
CN(C)C1CCN(c2ccc3nc4n(c3c2)C23CCC(CN(CCOc5c(cnn5C)-c5cc(cn(C)c5=O)C(=O)N4)C2)C3)CC1 (single isomer, unassigned) [Example A64B] = 1
Cn1ncc2c1OCCN1CC3CCC(C3)(C1)n1c(nc3ccc(N4CCC(N5CCOCC5)C4)cc31)NC(=O)c1cc-2c(=O)n(C)c1 (single isomer, unassigned) [Example A104B] = 1
CN(C)[C@H]1CCN(c2ccc3nc4n(c3c2)C23CCC(CN(CCOc5c(cnn5C)-c5cc(cn(C)c5=O)C(=O)N4)C2)C3)C1 (single isomer, unassigned) [Example A66A] = 0
CN1CCC2(CN(c3ccc4nc5n(c4c3)C34CCC(CN(CCOc6c(cnn6C)-c6cc(cn(C)c6=O)C(=O)N5)C3)C4)C2)C(F)(F)C1 (single isomer, unassigned) [Example A91A] = 0
CCN1CCN(c2ccc3nc4n(c3c2)C23CCC(CN(CCOc5c(cnn5C)-c5cc(cn(C)c5=O)C(=O)N4)C2)C3)CC1 (single isomer, unassigned) [Example A107A] = 0
CN1CCN(c2ccc3c(c2)nc2n3C34CCC(CN(CCOc5c(cnn5C)-c5cc(cn(C)c5=O)C(=O)N2)C3)C4)CC1 (centres unmarked) [Example A60] = 1
CN1CC2(C1)CN(c1ccc3nc4n(c3c1)C13CCC(CN(CCOc5c(cnn5C)-c5cc(cn(C)c5=O)C(=O)N4)C1)C3)C2 (single isomer, unassigned) [Example A92A] = 0
CN1CCN(C2CCN(c3ccc4nc5n(c4c3)C34CCC(CN(CCOc6c(cnn6C)-c6cc(cn(C)c6=O)C(=O)N5)C3)C4)C2)CC1 (single isomer, unassigned) [Example A80B2] = 1
CN1CC2(CCN(c3ccc4nc5n(c4c3)C34CCC(CN(CCOc6c(cnn6C)-c6cc(cn(C)c6=O)C(=O)N5)C3)C4)C2)C1 (single isomer, unassigned) [Example A73B] = 1

(Q) API: query returns whether the compound falls strictly under 100 nM in GI50. Query: CN(C)CC1(F)CN(c2ccc3nc4n(c3c2)C23CCC(CN(CCOc5c(cnn5C)-c5cc(cn(C)c5=O)C(=O)N4)C2)C3)C1 (single isomer, unassigned) [Example A72A]
(A) 0

(Q) Try the compound CN(C)C1CN(c2ccc3nc4n(c3c2)C23CCC(CN(CCOc5c(cnn5C)-c5cc(cn(C)c5=O)C(=O)N4)C2)C3)C1 (single isomer, unassigned) [Example A65B]
(A) 1
